The origin of these recorded values is PubChem BioAssay AID1159580.

Experiment: chemical genetic growth profiling, strain panel (AID 1159580);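 note: tested at 20 µM; growth read once vehicle control cultures reached saturation at 30 °C; 1 = growth at the plate median or of vehicle wells; lower values mean less growth of the strain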
Conditions: S. cerevisiae deletion strains, growth OD, locus YEL061C, strain CIN8, hits give low values
Hit rate of the full screen: of about 5,500 compounds, about 2,000 (36%) were called active. Roughly 18% stayed inconclusive and do not appear here. This is one part of the list.
readout_label: normalized growth
Returns: the value as a bare number; no unit string appended.

# normalized growth lookup, item COC(=O)c1ccc([N+](=O)[O-])cc1Cl
0.988

What do you get for C=CCc1cc(OC)c2c(c1OC)OCO2 ?
0.966

Can you check COc1cc(N=Cc2ccc3c(c2)OCO3)c(OC)cc1Cl next?
1.04

What about this molecule? CC[C@]12CCCN3CCc4c(n(c5ccccc45)C(=O)C1)[C@@H]32
0.992

Query COc1c(C(=O)O)ccc2c1CCC(C)(C)O2 next
1.03

Here is the next molecule: CC(=O)N[C@@H]1[C@@H](C(O)[C@H](O)CO)O[C@](O)(C(=O)O)C[C@@H]1O (stereo partly specified)
1
